- Test system: Yap1 mRNA
- assayName: Antisense inhibition of human Yap1 in A-431 cells by cEt gapmers, single dose (Example 3, RTS36584)
- Type: cell-based
- testSettings: Table 29; Yap1 mRNA as percent of untreated control; 3-10-3 cEt gapmers targeting SEQ ID NO.: 1, and 2
Strand notation (5' to 3'): a small letter for the sugar, then the base; units joined by * are phosphorothioate-linked, units joined directly phosphodiester-linked; [ ] holds rarer units or linkages, { } end groups; capitals alone tell only the bases. k = constrained ethyl (cEt); [5mC] = 5-methylcytosine; d = 2'-deoxy (DNA)
Class 1: YAP1 (% UTC) at least 20 % UTC. Class 0: YAP1 (% UTC) below 20 % UTC.

substance="1076143 (kG*kA*kT*dA*d[5mC]*dG*dA*dA*dA*dA*dA*dA*dG*k[5mC]*k[5mC]*kA; antisense) [compound 1076143]" system="Yap1 mRNA" classlabel=0
substance="958499 (ATTAGAGTATGTGGCA; 3-10-3 cEt gapmer, further chemistry not given here) [compound 958499]" system="Yap1 mRNA" classlabel=0
substance="1075599 (antisense kA*k[5mC]*k[5mC]*d[5mC]*dT*dA*dT*dA*dG*d[5mC]*dT*dT*dT*kA*kG*kG) [compound 1075599]" system="Yap1 mRNA" classlabel=1
substance="1075375 (antisense k[5mC]*kT*kA*dA*dA*dT*dA*dT*d[5mC]*dA*dA*d[5mC]*dT*k[5mC]*k[5mC]*k[5mC]) [compound 1075375]" system="Yap1 mRNA" classlabel=1
substance="1075407 (antisense kG*kA*kA*d[5mC]*dT*dA*dT*dA*dT*dA*dA*d[5mC]*d[5mC]*kT*kG*kA) [compound 1075407]" system="Yap1 mRNA" classlabel=1

## Input Form field: YAP1 (% UTC) at least 20 % UTC? Entry: 1074895 (antisense kT*k[5mC]*k[5mC]*dT*dA*dT*dG*d[5mC]*dT*dG*dA*dA*dG*kT*kT*kT) [compound 1074895]
## Output 1

## Input Please answer likewise for 1075183 (kA*kT*kT*dA*d[5mC]*dT*dA*dA*dG*dA*d[5mC]*dA*dG*kT*kG*kG; antisense) [compound 1075183]
## Output 0

## Input # iterate: 1075471 (antisense kA*kG*k[5mC]*d[5mC]*dA*dA*dT*dA*dA*dG*dT*dT*dA*kT*k[5mC]*kA) [compound 1075471]
## Output 1

## Input Item: 1074735 (kG*kA*kT*d[5mC]*dA*dA*dA*dG*d[5mC]*dA*d[5mC]*dT*dG*kT*kG*k[5mC]; antisense) [compound 1074735]
## Output 1

## Input Query 1076207 (kA*kG*kT*d[5mC]*dA*dA*dT*dA*dA*dA*d[5mC]*dT*dT*kA*k[5mC]*k[5mC]; antisense) [compound 1076207] next
## Output 1

## Input What would you report for 1074191 (antisense kA*k[5mC]*kG*dG*d[5mC]*dG*dG*dG*d[5mC]*d[5mC]*d[5mC]*dT*dG*k[5mC]*k[5mC]*k[5mC]) [compound 1074191] ?
## Output 1

## Input Okay, and 1075215 (kA*kA*kA*d[5mC]*dA*dA*dT*dA*dA*dA*dG*dG*dG*kT*k[5mC]*k[5mC]; antisense) [compound 1075215] ?
## Output 1

## Input Same lookup for 1074127 (k[5mC]*k[5mC]*kA*d[5mC]*dT*dG*dG*dT*d[5mC]*dT*dG*dG*d[5mC]*kG*kG*k[5mC]; antisense) [compound 1074127] , please.
## Output 1

## Input # repeat for 1074703 (antisense k[5mC]*kG*kG*dT*dG*dT*dA*dA*dG*dA*d[5mC]*dA*dA*kG*kT*k[5mC]) [compound 1074703]
## Output 0

## Input Consider next the substance 1074351 (antisense kA*kT*kG*d[5mC]*dT*dT*dA*dG*dT*d[5mC]*d[5mC]*dA*d[5mC]*kT*kG*kT) [compound 1074351] in the same way.
## Output 0

## Input 1076111 (kA*kA*kT*dT*dA*dG*dT*dT*dA*dG*dG*dA*dT*kA*kT*k[5mC]; antisense) [compound 1076111] , same question.
## Output 1

## Input Same question, 1075023 (antisense kG*kT*kA*dT*dT*dT*dA*d[5mC]*dA*dA*d[5mC]*d[5mC]*dT*kA*kG*kA) [compound 1075023] this time
## Output 0

## Input Request: 1076399 (antisense kG*kA*kT*dA*dA*d[5mC]*dT*dT*dA*dG*dA*dG*dA*kT*kG*kT) [compound 1076399]
## Output 0

## Input Here is the next substance: 1075247 (k[5mC]*kT*kA*dA*dG*dA*dT*dA*dA*d[5mC]*dT*dA*dG*kT*kA*kA; antisense) [compound 1075247]
## Output 1

## Input Further, for 1076367 (antisense k[5mC]*kT*kA*dT*dT*dT*dA*d[5mC]*dA*dT*dG*dA*dG*kA*kG*kG) [compound 1076367] ?
## Output 0

## Input Ok, now 1076079 (kA*kA*kG*d[5mC]*dA*dA*dT*dA*dT*dA*dT*dG*dG*k[5mC]*k[5mC]*kT; antisense) [compound 1076079]
## Output 1
